Taken from patent US20080311122A1.

Target: T1, recombinant HMG1 purified from E. coli as a calmodulin binding protein (CBP) fusion protein (human, UniProt A9RA84 1-215 (Papio anubis entry))
T1 sequence: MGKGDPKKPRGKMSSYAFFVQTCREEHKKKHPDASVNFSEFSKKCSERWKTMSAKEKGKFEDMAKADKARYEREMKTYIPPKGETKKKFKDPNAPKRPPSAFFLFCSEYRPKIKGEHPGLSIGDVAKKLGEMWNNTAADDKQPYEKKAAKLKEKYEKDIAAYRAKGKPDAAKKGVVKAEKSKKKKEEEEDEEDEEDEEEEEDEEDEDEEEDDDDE
Assay: cell-based or functional assay
propertyName: IC50, inhibition of rHMG1 stimulated IL-1β release from human PBMC (µg/mL)

binder | numericReadout
anti-HMG1 antibody S14 (antibody, V domains shown) VH: EVQLLESGGGLVQPGGSLRLSCAASGFTFSWYETGWVRQAPGKGLEWVSGISPSGGYTQYADSVKGRFTISRDNSKNTLYLQMNSLRAEDTAVYYCARSGVGATKIFDYWGQGTLVTVSS VL: DIQMTQSPSSLSASVGDRVTIICRANERINTYLNWYQQKPGKAPKLLISGTSSLESGVPSRFSGSGSGTEFTLSISSLQPEDFASYYCQQSYSSPYTFGQGTNLEIR | 0.0678
